Catalogue of IC50 values
- target system: Nucleotide-binding oligomerization domain-containing protein 1 (Homo sapiens)
- Sequence (Q9Y239 whole entry): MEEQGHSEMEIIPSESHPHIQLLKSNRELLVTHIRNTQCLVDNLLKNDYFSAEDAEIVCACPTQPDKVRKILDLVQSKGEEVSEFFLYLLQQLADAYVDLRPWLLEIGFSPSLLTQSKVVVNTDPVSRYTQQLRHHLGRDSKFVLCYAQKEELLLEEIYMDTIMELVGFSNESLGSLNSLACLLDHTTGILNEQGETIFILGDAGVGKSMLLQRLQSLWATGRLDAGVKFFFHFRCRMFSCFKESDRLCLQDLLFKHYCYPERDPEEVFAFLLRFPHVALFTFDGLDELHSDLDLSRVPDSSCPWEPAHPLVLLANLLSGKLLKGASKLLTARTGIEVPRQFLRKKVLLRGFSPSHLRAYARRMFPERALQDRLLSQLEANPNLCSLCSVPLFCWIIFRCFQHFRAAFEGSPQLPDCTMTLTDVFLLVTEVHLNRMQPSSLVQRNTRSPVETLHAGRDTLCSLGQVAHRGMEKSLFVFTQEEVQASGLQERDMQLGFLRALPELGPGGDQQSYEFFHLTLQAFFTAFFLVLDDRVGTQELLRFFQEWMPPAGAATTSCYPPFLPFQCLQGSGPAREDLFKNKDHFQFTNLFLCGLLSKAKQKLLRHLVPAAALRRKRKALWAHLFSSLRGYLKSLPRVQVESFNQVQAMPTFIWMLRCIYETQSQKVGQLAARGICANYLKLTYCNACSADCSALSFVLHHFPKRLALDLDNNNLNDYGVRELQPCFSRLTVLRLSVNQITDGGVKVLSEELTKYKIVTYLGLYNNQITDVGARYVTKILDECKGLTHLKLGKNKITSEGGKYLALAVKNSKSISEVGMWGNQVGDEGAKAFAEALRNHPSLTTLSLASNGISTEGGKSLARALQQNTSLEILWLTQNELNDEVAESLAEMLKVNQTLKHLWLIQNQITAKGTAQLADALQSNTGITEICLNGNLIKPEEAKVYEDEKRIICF
- measurement description: blockers of NOD1 pathway activity – revised, SAR follow-up (AID 2333)
- Format: functional
The source made the active and inactive calls.
measured parameter: IC50

{"columns": ["item smiles", "value observed"],
 "data": [
  ["Nc1nc2ccccc2n1Cc1ccccc1Cl", "12.9 µM (active)"],
  ["O=C(CSc1nc2ccccc2c(=O)n1Cc1ccccc1)Nc1ccc(Br)cc1C(=O)O", "5.99 µM (active)"],
  ["O=C(Nc1cccc([N+](=O)[O-])c1)c1ccc2ccccc2c1O", "4.36 µM (active)"],
  ["CCCCn1c(SCC(=O)Nc2nnc(C(C)C)s2)nc2c1c(=O)n(C)c(=O)n2C", "5.79 µM (active)"]
]}

----------
- measurement description: Luminescence Cell-Based Dose Retest to Confirm Inhibitors of Cancer Stem Cells. [Related pubchem assays (depositor defined):AID2717, AID2721]
- Type: functional
- settings: Homo sapiens
Counter-ions that a name gives are not always drawn. Active and inactive are the calls of the source.

{"columns": ["molecule", "AC50"],
 "data": [
  ["C#CCOCCOCCOCCNc1nc(N2CCN(C(=O)CCCCCCCCCCNC(=O)Cn3cc(C[C@@H](C)O)nn3)CC2)nc(N2CCN(C(=O)CCCCCCCCCCNC(=O)[C@H](CCCCN)n3cc(C[C@@H](C)CC)nn3)CC2)n1", "7.11 µM (active)"],
  ["CNC(=O)c1cc(Oc2ccc(NC(=O)Nc3ccc(Cl)c(C(F)(F)F)c3)cc2)ccn1 [SORAFENIB TOSYLATE]", "2.04 µM (active)"],
  ["O=C(CCSc1nc2ccccc2s1)N/N=C/c1c(O)ccc2ccccc12", "4.52 µM (active)"],
  ["COc1ccccc1OCCN1CSC(=S)N(C)C1", "2.4 µM (active)"],
  ["C=C(C)COc1ccc(-c2nc(N)ncc2-c2ccc(Cl)cc2)c(O)c1", "3.57 µM (active)"],
  ["Cc1nc2ccccc2c(=O)n1/N=C/c1c(O)ccc2oc3c(c12)CCCC3", "30 µM (active)"],
  ["C[C@H]1[C@H](C)CC[C@]2(C)CC[C@]3(C)C(=CC(=O)C4[C@@]5(C)CC[C@H](O)C(C)(C)C5CC[C@]43C)[C@H]12 (stereo partly specified)", "4.76 µM (active)"],
  ["CC(C)CCn1c(N)c(C(=O)NCc2cccs2)c2nc3ccccc3nc21", "3.46 µM (active)"],
  ["O=C(CSCc1cccc(Cl)c1)Nc1ccccc1-c1ccccc1", "21.7 µM (active)"],
  ["Cc1ccc(F)c(NC(=O)/C(C#N)=C(\\O)c2ccc(C(C)(C)C)cc2)c1", "1.96 µM (active)"],
  ["O=C(NNc1ccc(-c2csnn2)cc1)c1cc(Cl)cc(Cl)c1", "2.15 µM (active)"]
]}
